Assay: MTT cytotoxicity assay, Vero
Type: cell-based
Conditions: African green monkey, Vero cells, 24-hour incubation
property name: CC50 at 24 h

Query: CC50 at 24 h; subject: COC1C(OP(=O)(OC[C@H]2O[C@@H](n3cnc4c(N)ncnc43)CC2O)SCOC(=O)OC(C)C)[C@@H](CO)O[C@H]1n1ccc(=O)[nH]c1=O (stereo partly shown)
> 1000 µM

###

Test: Cytotoxicity by neutral red dye uptake in replicon cultures in parallel plates
Conditions: human, AVA5 HCV replicon cells (sub-genomic CON1, genotype 1b)
property name: CC50 at 3 day (µM)
Give the quantity in µM, number only.

Query: CC50 at 3 day; subject: CCC[C@H](NC(=O)[C@@H]1[C@H]2CCC[C@H]2CN1C(=O)[C@@H](NC(=O)[C@@H](NC(=O)c1cnccn1)C1CCCCC1)C(C)(C)C)C(=O)C(=O)NC1CC1
88
